Biological target: Interleukin-1 receptor-associated kinase 4 (Homo sapiens) (UniProt Q9NWZ3);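 also: mean inhibition values, from the GSK PKIS dataset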
Sequence (Q9NWZ3 whole entry): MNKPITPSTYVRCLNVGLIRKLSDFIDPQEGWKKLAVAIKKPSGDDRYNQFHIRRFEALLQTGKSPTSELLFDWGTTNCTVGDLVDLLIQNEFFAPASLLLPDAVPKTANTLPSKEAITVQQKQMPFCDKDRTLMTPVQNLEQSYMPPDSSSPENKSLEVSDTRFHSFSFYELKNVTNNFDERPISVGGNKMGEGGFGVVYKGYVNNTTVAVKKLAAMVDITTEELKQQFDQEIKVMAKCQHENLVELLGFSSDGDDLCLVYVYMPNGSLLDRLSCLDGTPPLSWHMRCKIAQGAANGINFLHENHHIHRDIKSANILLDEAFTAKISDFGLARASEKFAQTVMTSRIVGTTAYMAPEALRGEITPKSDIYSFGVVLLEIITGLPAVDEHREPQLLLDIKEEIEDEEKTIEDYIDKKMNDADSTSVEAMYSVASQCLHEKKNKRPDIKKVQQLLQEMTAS
Conditions: at 1 µM
Consider the following compounds and their measured inhibition readings.

| Smiles structure | Measured value |
| --- | --- |
| COc1cccc(-n2ncc3c(N/N=C/c4ccc(S(C)(=O)=O)cc4)ncnc32)c1 | 1.12% |

Exercise: Name the reported inhibition value associated with the compound Nc1nccc(C#Cc2cncnc2Nc2ccc(OCc3cccc(F)c3)c(Cl)c2)n1
Key: 2.48%

Exercise: Name the reported inhibition value associated with the compound CS(=O)(=O)CCNCc1nc(-c2ccc3ncnc(Nc4ccc(OCc5cccc(C(F)(F)F)c5)cc4)c3c2)cs1
Key: 1.16%

Exercise: Name the reported inhibition value associated with the compound C[C@@H](Oc1cc(-n2cnc3ccc(OCC4CCN(C)CC4)cc32)sc1C(N)=O)c1ccccc1C(F)(F)F
Key: 9.77%

----------
Biological target: Homeodomain-interacting protein kinase 1 (Homo sapiens) (UniProt Q86Z02);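 also: each value is a mean percent inhibition of HIPK1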
Sequence (Q86Z02 whole entry, looked up): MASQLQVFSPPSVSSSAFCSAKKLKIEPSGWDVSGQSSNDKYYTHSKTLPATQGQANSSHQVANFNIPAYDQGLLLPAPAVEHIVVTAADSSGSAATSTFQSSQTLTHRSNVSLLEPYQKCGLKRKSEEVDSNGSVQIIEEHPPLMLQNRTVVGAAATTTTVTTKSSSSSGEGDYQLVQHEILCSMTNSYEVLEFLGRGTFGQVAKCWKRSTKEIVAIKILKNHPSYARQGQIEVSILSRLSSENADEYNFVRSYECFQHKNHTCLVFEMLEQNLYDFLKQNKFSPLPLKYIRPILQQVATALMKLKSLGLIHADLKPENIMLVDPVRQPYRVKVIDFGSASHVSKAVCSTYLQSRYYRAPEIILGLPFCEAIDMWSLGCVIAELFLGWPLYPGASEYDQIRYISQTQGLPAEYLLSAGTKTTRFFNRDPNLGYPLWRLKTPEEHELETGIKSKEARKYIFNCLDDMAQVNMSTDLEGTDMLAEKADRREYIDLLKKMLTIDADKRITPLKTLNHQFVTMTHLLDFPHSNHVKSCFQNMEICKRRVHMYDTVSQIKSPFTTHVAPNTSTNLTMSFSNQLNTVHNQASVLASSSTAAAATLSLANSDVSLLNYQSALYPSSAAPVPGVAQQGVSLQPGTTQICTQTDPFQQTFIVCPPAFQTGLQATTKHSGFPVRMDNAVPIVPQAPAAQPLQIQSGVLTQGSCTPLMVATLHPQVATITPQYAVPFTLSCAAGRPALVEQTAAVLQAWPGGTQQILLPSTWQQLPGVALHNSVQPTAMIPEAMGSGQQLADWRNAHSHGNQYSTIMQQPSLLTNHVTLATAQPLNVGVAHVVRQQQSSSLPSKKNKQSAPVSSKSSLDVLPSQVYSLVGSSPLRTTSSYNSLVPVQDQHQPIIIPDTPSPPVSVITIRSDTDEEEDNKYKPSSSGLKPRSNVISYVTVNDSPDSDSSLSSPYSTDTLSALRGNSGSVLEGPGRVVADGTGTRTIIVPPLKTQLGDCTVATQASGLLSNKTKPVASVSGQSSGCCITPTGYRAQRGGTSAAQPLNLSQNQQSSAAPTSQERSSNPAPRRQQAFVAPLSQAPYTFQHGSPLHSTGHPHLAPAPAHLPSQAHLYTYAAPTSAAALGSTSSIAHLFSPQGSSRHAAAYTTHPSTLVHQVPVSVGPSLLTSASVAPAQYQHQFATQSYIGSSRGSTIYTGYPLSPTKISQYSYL
Conditions: at 0.1 µM
Consider the following compounds and their measured inhibition readings.
Unit % implied. Number only.

| Smiles structure | Readout name | Measured value |
| --- | --- | --- |
| NC(=O)c1sc(-n2cnc3ccccc32)cc1OCc1ccccc1Br | inhibition | -1.6 |
| CCn1c(-c2nonc2N)nc2ccc(F)cc21 | inhibition | 2.6 |

Exercise: Name the reported inhibition value associated with the compound NS(=O)(=O)c1cccc(-c2cc3ccncc3cc2OCc2ccccc2)c1
Key: 1.1

----------
Target: Cytoplasmic tyrosine-protein kinase BMX (Homo sapiens) (UniProt P51813)
Sequence (whole entry): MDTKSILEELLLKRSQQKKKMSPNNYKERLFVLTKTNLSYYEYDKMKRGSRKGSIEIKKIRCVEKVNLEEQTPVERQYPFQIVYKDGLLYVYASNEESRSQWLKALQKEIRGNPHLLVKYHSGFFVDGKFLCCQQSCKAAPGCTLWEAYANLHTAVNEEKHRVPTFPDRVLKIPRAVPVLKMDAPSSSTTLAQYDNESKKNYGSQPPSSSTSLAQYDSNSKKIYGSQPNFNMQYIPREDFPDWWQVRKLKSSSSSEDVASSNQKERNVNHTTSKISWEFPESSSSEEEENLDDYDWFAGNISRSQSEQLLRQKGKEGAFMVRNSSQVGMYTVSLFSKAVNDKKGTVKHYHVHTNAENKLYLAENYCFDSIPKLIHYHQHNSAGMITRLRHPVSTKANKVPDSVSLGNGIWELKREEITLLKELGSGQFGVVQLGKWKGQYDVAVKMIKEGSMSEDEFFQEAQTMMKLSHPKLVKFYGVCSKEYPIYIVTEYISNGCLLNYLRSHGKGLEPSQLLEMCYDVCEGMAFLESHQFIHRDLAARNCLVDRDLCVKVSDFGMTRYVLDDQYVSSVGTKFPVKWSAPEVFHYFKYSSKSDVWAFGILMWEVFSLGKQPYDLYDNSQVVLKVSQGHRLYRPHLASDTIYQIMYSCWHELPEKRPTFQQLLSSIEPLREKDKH
Details: at 0.1 µM
Description: GSK_PKIS: BMX mean inhibition at 0.1 uM [Nanosyn]
Readout name: inhibition (%)
Unit % implied. Number only.

| Smiles structure | Measurement unit | inhibition |
| --- | --- | --- |
| COc1cc2ncn(-c3cc(OCc4ccccc4S(C)(=O)=O)c(C#N)s3)c2cc1OC | % | 1.45 |
| COC(=O)c1ccc2c(c1)C(=Cc1cc(Br)c(O)c(Br)c1)C(=O)N2 | % | 3.04 |
| COc1ccc(-c2nn3ncccc3c2-c2ccnc(Nc3cccc(C(F)(F)F)c3)n2)cc1 | % | 2.37 |

Exercise: Name the reported inhibition value associated with the compound Cc1ccc(O)cc1Nc1ccnc2ccc(S(C)(=O)=O)cc12
Key: 76.5

Exercise: Name the reported inhibition value associated with the compound COc1cc2ncnc(Nc3ccc(C)c(O)c3)c2cc1OC
Key: 6.28

----------
Consider the following compounds and their measured inhibition readings.
Molecular target: Rhodopsin kinase GRK7 (Homo sapiens);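 also: mean percent inhibition of GRK7, profiled as part of the GSK PKIS screen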
Details: at 1 µM
Unit % implied. Number only.

| Smiles structure | inhibition, % |
| --- | --- |
| NS(=O)(=O)c1ccc(NC=C2C(=O)Nc3ccc4ncsc4c32)cc1 | 22.4 |
| Cc1nc(-c2ccccc2)n2nc(NCCCN3CCOCC3)ncc12 | 2.44 |

Exercise: Name the reported inhibition value associated with the compound CC(C)c1ccc(Nc2nccc(-c3cnn4ncccc34)n2)cc1
Key: 3.19

----------
Target: Casein kinase I isoform gamma-1 (Homo sapiens) (UniProt Q9HCP0);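 also: reported as mean inhibition, part of GSK PKIS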
Sequence (Q9HCP0 whole entry, looked up, canonical isoform): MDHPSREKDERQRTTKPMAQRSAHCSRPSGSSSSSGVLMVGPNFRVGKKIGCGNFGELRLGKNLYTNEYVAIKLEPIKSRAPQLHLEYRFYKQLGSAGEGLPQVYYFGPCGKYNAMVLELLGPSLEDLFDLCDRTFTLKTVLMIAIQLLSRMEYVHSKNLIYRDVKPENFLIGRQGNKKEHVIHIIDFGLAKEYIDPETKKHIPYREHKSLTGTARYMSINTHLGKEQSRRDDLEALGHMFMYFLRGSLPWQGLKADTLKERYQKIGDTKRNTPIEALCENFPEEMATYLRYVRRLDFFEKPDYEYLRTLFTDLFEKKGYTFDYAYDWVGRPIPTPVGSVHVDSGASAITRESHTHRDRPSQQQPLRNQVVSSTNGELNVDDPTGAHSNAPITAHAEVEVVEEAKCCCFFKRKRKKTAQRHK
Conditions: at 0.1 µM
Consider the following molecules and their measured inhibition readings.
Unit % implied. Number only.

Please review the entries below; each comes with its answer.
| Molecule | Measurement unit | inhibition |
| --- | --- | --- |
| COc1cccc(-n2nc(C)c3c(N/N=C(\C)c4ccncc4)ncnc32)c1 | % | 0.02 |
| NS(=O)(=O)c1cccc(Nc2cc(-c3ccc(F)cc3)n[nH]2)c1 | % | 2.11 |
| COc1cc(/C=N/Nc2ncnc3c2cnn3C(C)C)ccc1O | % | 1.74 |

Exercise: So what inhibition did CCCN1CCCC(c2ccc(Nc3nc(Nc4cc(F)ccc4C(N)=O)c4cc[nH]c4n3)c(OC)c2)C1 (stereo not given) get with Casein kinase I isoform gamma-1 (Homo sapiens) (UniProt Q9HCP0)?
Key: 36.1

Exercise: So what inhibition did OCc1ccc(-c2nc(-c3ccccn3)c(-c3ccc4c(c3)OCO4)[nH]2)cc1 get with Casein kinase I isoform gamma-1 (Homo sapiens) (UniProt Q9HCP0)?
Key: 4.27

Exercise: So what inhibition did O=C1Nc2ccccc2/C1=C/Nc1ccc2[nH]c(=O)[nH]c2c1 get with Casein kinase I isoform gamma-1 (Homo sapiens) (UniProt Q9HCP0)?
Key: 4.87

Exercise: So what inhibition did Cc1ccc(Nc2ccnc(Nc3cccc(C(N)=O)c3)n2)cc1O get with Casein kinase I isoform gamma-1 (Homo sapiens) (UniProt Q9HCP0)?
Key: -1.2

Exercise: So what inhibition did CCn1c(-c2nonc2N)nc2ccc(F)cc21 get with Casein kinase I isoform gamma-1 (Homo sapiens) (UniProt Q9HCP0)?
Key: 4.91

Exercise: So what inhibition did NS(=O)(=O)c1ccc(NC=C2C(=O)Nc3ccc4ncsc4c32)cc1 get with Casein kinase I isoform gamma-1 (Homo sapiens) (UniProt Q9HCP0)?
Key: 5.22

Exercise: So what inhibition did Nc1nccc(C#Cc2cncnc2Nc2ccc(OCc3cccc(F)c3)c(Cl)c2)n1 get with Casein kinase I isoform gamma-1 (Homo sapiens) (UniProt Q9HCP0)?
Key: 3.44

----------
Target: Serine/threonine-protein kinase pim-2 (Homo sapiens);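 also: each value is a mean of the inhibition measurements against the kinase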
Conditions: at 1 µM
Consider the following compounds and their measured inhibition readings.
Unit % implied. Number only.

Please review the entries below; each comes with its answer.
| Smiles structure | Measurement unit | Measured value |
| --- | --- | --- |
| COc1cccc(-n2nc(C)c3c(N/N=C(\C)c4ccncc4)ncnc32)c1 | % | -0.42 |
| NS(=O)(=O)c1cccc(-c2cc3ccncc3cc2OCc2ccccc2)c1 | % | 0.25 |
| COc1ccc2ncnc(Nc3ccc(OCc4ccccc4)cc3)c2c1 | % | 0.96 |

Exercise: Name the reported inhibition value associated with the compound NS(=O)(=O)c1ccc(-c2cc3ccncc3cc2OCc2ccccc2)cc1
Key: -1.33

Exercise: Name the reported inhibition value associated with the compound Cc1cc(-c2ccccn2)cc(C)c1/C=C/c1cncc(-c2nn[nH]n2)c1
Key: -0.15

Exercise: Name the reported inhibition value associated with the compound COc1cc2ncnc(Nc3ccc(C)c(O)c3)c2cc1OC
Key: 2.78

----------
Biological target: Testis-specific serine/threonine-protein kinase 1 (Homo sapiens) (UniProt Q9BXA7);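 also: reported value is the mean inhibition, from the GSK PKIS kinase screening panel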
Sequence (whole entry): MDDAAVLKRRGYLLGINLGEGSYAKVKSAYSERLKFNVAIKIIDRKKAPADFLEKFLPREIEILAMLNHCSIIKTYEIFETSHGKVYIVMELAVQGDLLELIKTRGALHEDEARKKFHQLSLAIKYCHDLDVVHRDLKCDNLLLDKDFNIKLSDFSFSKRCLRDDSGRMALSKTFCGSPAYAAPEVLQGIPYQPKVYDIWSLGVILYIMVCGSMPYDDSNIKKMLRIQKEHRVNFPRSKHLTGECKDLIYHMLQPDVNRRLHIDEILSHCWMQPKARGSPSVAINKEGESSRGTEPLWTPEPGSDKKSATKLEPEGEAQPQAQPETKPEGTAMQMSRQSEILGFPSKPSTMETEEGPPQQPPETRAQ
Settings: at 1 µM
Criterion: inhibition meeting or surpassing 4%. Met: Satisfied. Not met: Not satisfied.

Example entries and their recorded answers appear below.
| Smiles structure | Class assignment |
| --- | --- |
| CCS(=O)(=O)c1ccc(OC)c(Nc2nccc(N(C)c3ccc4c(C)n[nH]c4c3)n2)c1 | Satisfied |
| NC(=O)c1sc(-n2cnc3ccccc32)cc1OCc1ccccc1Br | Satisfied |
| COc1cc2ncn(-c3cc(OCc4ccccc4S(C)(=O)=O)c(C#N)s3)c2cc1OC | Satisfied |

Exercise: API: above_or_equal(metric=inhibition, cutoff=4%) for item C[C@@H](Oc1cc(-n2cnc3ccc(OCC4CCN(C)CC4)cc32)sc1C(N)=O)c1ccccc1C(F)(F)F
Key: Satisfied

Exercise: API: above_or_equal(metric=inhibition, cutoff=4%) for item COC(=O)c1cncc(/C=C/c2c(C)cc(O)cc2C)c1
Key: Satisfied

Exercise: API: above_or_equal(metric=inhibition, cutoff=4%) for item C[C@@H](Oc1cc(-n2cnc3ccc(OC[C@@H](O)CO)cc32)sc1C(N)=O)c1ccccc1Cl
Key: Not satisfied

Exercise: API: above_or_equal(metric=inhibition, cutoff=4%) for item Cc1cc(-c2ccccn2)cc(C)c1/C=C/c1cncc(-c2nn[nH]n2)c1
Key: Satisfied

Exercise: API: above_or_equal(metric=inhibition, cutoff=4%) for item Nc1nccc(C#Cc2cncnc2Nc2ccc(OCc3cccc(F)c3)c(Cl)c2)n1
Key: Not satisfied

Exercise: API: above_or_equal(metric=inhibition, cutoff=4%) for item Cc1cc(Cl)cc2c1NC(=O)C2=NNc1ccc(S(N)(=O)=O)cc1
Key: Satisfied

Exercise: API: above_or_equal(metric=inhibition, cutoff=4%) for item Cc1ccc2c(c1)/C(=N/Nc1ccc(S(N)(=O)=O)cc1)C(=O)N2
Key: Not satisfied
